# credit: paper PMC7463913

Biological target: DC-SIGN (ECD) (Homo sapiens, UniProt Q9NNX6)
Construct: DC-SIGN full extracellular domain (ECD, residues 70-404, Thermo Fischer Scientific)
Sequence (Q9NNX6 70-404): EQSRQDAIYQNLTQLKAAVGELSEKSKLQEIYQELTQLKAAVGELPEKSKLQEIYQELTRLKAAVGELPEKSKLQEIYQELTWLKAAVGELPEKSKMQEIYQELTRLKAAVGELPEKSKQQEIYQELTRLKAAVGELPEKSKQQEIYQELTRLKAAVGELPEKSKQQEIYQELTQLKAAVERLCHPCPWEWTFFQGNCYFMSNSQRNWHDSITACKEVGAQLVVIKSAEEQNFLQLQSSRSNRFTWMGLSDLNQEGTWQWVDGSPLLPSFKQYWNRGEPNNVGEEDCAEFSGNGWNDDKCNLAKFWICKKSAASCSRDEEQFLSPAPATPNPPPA
Assay: competitive 19F-R2 filtered NMR experiments (spy molecule 6-F-ManαOMe)
Settings: non-linear least squares fitting; [6-F-ManαOMe] 400 µM, [DC-SIGN (CRDs)] 10 µM; 298 K, pH 8.0
Measured Parameter: Ki (µM)

See these solved cases before continuing.
CO[C@H]1O[C@H](CO[C@H]2O[C@H](CO)[C@@H](O)[C@H](O)[C@@H]2F)[C@@H](O)[C@H](O[C@H]2O[C@H](CO)[C@@H](O)[C@H](O)[C@@H]2F)[C@@H]1F: 2500
CO[C@H]1O[C@H](CO[C@H]2O[C@H](CO)[C@@H](O)[C@H](O)[C@@H]2O)[C@@H](O)[C@H](O[C@H]2O[C@H](CO)[C@@H](O)[C@H](O)[C@@H]2O)[C@@H]1F: 1000
CO[C@H]1O[C@H](CO[C@H]2O[C@H](CO)[C@@H](O)[C@H](O)[C@@H]2F)[C@@H](O)[C@H](O)[C@@H]1F: 4000

[P] CO[C@H]1O[C@H](CO[C@H]2O[C@H](CO)[C@@H](O)[C@H](O)[C@@H]2O)[C@@H](O)[C@H](O[C@H]2O[C@H](CO)[C@@H](O)[C@H](O)[C@@H]2F)[C@@H]1O
[Q] CO[C@H]1O[C@H](CO)[C@@H](O)[C@H](O[C@H]2O[C@H](CO)[C@@H](O)[C@H](O)[C@@H]2F)[C@@H]1F
Compare P and Q by numeric Ki and name the larger one. Please reply using the label of the selected record.
Q

* * *

Biological target: DC-SIGN (ECD) (Homo sapiens)
Construct: DC-SIGN full extracellular domain (ECD, residues 70-404, Thermo Fischer Scientific)
Assay: 19F-R2 filtered NMR KD determination of the spy molecule
Conditions: spy molecule with DC-SIGN; fast-exchange regime, τCPMG 1 ms
Method: For KD estimation of 6-deoxy-6-F-Man (the spy-molecule), the free evolution delay was set to an optimized value τ=1 ms , after using relaxation dispersion experiments to assure a negligible chemical exchange contribution to R2,obs (Figure S1a). The KI of 1, 1b-d, 2, and 3 with DC-SIGN (ECD) was determined by titration experiments in a competitive fashion. […] Figure S1. […] R2,obs of the 19F nucleus is measured for different values of ωCPMG. […]
Measured Parameter: Kd (µM)
Please give a number only; it is taken to be in µM.

# lookup: Kd of CO[C@H]1O[C@H](CF)[C@@H](O)[C@H](O)[C@@H]1O [6-F-ManαOMe]
1300
